Source of measurements: patent US20260242478A1

Tested System: T1, Anti-CD28 scFv (VH - linker 1 - VL) (biotinylated (site not stated))
T1 construct: Biotinylated scFv captured on neutravidin coated plates in the panning ELISA
T1 sequence (scFv, as listed by the source): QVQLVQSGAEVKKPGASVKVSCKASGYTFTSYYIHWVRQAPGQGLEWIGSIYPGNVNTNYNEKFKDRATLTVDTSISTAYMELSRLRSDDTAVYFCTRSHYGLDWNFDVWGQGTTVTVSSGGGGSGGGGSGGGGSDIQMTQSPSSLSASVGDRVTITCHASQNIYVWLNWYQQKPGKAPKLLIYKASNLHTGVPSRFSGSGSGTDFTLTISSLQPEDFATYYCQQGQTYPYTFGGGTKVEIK
Assay Info: phage ELISA; biotinylated anti-CD28 scFv on neutravidin plate, wells pre-incubated with soluble CD28 (competitor), anti-M13-HRP detection;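 also: bound clonal phage detected by peroxidase-labelled anti-M13 antibody, compared against wells given blocking buffer alone without soluble CD28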
Recorded Metric: CD28 scFv signal in presence of CD28
Lab note: jot down the number only; don't add units.

Here are 2 binders together with their reported answers.
MDWCPMFLWHECFN (tested as crude phage supernatant) [Phage-309] :: 0.591
MDWCPRYLWHVCFY (tested as crude phage supernatant) [Phage-291] :: 1.14

Look at this binder and give its reported CD28 scFv signal in presence of CD28. MDWCPRYLWHVCFD (tested as crude phage supernatant) [Phage-302]
0.31
